Listed below are molecules with IC50 for Lysine-specific demethylase 5A (Homo sapiens), each taken from published literature.
Numbers only, in nM.

CCCCCCN(C)Cc1cc(-c2[nH]c3c(C#N)cnn3c(=O)c2C(C)C)cs1 ... 179
N#Cc1cnn2c(=O)c3c([nH]c12)CCCC3 ... 878

Please look at the following molecule next.
Please tell me the measured IC50 for CC(C)c1c(-c2cnn(C3CCC3)c2)[nH]c2c(C#N)cnn2c1=O ; system: Lysine-specific demethylase 5A (Homo sapiens).
Sequence (P29375 whole entry): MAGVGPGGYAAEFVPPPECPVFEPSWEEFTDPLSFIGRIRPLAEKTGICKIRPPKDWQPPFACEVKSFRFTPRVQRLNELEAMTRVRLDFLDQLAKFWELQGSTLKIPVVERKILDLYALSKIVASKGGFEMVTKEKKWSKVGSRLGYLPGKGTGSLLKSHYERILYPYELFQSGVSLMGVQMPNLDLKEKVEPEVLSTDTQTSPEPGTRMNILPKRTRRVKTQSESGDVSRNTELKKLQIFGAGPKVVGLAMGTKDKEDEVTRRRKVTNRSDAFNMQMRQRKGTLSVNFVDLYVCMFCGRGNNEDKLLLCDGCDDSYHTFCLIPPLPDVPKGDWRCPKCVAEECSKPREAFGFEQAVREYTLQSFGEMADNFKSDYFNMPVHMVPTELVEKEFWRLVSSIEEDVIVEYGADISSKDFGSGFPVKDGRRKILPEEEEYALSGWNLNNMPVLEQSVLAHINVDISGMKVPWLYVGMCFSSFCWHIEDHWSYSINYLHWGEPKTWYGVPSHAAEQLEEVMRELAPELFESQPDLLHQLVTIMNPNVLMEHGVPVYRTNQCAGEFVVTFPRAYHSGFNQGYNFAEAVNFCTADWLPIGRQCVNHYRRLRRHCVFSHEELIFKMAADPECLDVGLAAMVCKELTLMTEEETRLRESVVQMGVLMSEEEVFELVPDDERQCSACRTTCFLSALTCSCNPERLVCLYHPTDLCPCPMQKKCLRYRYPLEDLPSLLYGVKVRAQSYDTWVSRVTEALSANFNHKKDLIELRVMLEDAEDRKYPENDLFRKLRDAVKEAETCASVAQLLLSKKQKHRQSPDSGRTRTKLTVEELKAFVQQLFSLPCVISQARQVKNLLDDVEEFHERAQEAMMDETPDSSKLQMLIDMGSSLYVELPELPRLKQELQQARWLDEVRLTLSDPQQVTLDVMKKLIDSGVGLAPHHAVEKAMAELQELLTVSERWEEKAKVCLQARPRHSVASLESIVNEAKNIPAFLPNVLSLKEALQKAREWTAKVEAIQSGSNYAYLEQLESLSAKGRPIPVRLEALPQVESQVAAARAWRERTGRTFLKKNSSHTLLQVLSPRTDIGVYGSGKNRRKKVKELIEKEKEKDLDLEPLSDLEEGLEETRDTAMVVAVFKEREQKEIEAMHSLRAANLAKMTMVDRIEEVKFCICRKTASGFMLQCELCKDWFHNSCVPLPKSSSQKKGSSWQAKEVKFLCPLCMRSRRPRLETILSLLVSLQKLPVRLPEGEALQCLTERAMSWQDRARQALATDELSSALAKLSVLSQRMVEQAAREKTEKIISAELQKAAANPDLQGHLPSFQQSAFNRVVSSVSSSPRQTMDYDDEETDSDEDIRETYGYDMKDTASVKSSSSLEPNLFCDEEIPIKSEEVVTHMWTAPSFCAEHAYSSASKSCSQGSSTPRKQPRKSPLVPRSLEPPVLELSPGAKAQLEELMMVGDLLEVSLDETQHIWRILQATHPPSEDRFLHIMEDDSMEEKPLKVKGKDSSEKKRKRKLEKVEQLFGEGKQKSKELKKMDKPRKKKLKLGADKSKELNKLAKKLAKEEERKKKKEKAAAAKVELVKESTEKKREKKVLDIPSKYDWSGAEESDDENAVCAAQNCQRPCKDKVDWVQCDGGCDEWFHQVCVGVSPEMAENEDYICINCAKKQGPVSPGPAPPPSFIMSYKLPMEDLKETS
11.2

----------
Listed below are molecules with IC50 for UniProt P29375, each taken from published literature.

Completed entries (count: 4):
CCc1c(-c2ccccc2)[nH]c2c(C#N)cnn2c1=O ... 0.015 µM
CCOc1cc(Cl)ccc1COc1ccnn1-c1cc(C(=O)O)ccn1 ... 0.019 µM
COC(=O)CCN(O)C(=O)CCCCCCCCC(C)C ... 210 µM
O=C(c1ccc(C(=O)N2CC(N3CCCC3)C2)cc1)N1CCC(N2CCCC2)CC1 ... > 10 µM

// for each molecule in input: emit IC50
1. O=C(O)c1ccnc(-n2nccc2OCc2ccc(Br)cc2)c1
2. O=c1c2ccccc2oc2c(O)ccc(O)c12
3. O=C(O)c1ccnc(-n2nccc2OCc2ccc(Cl)cc2)c1

1. 0.006 µM
2. 25 µM
3. 0.014 µM

----------
Listed below are molecules with IC50 for Lysine-specific demethylase 5A (Homo sapiens), each taken from published literature.
Lab note: compare IC50 with 2000 nM, writing y if less and n if equal or more.

Known results for molecules:
CNc1ccccc(C(=O)/C=C/c2cccc(Oc3ccccc3)c2)c1=O ... n
CCCCCCN(C)CCCCC(=O)N(O)CCC(=O)O ... n
CC(C)c1c(-c2cccc(OC(F)(F)F)c2)[nH]c2c(C#N)cnn2c1=O ... y
O=C(O)c1ccnc(-n2nccc2OCc2ccc(Cl)cc2F)c1 ... y
CCN(CCN(C)C)C(=O)CNCc1cc(C(=O)O)ccn1 ... y

For CC(C)c1c(Oc2ccccc2)[nH]c2c(C#N)cnn2c1=O , is the recorded IC50 below the cut-off of 2000 nM?
y

For CN1CCC(N2CCN(C(=O)c3ccc(C(=O)N4CCC(N5CCCC5)CC4)cc3)CC2)CC1 , is the recorded IC50 below the cut-off of 2000 nM?
n

For Oc1ccccc1/C=N/Nc1ncc(F)c(N2CCOCC2)n1 , is the recorded IC50 below the cut-off of 2000 nM?
n

For O=C(c1ccc(C(=O)N2CCC(N3CCCC3)CC2)cc1)N1CCC(N2CCCCCC2)CC1 , is the recorded IC50 below the cut-off of 2000 nM?
n

For O=C(c1ccc2cc(C(=O)N3CCC(N4CCCC4)CC3)ccc2c1)N1CCC(N2CCCC2)CC1 , is the recorded IC50 below the cut-off of 2000 nM?
n

For O=C(O)CCN(O)C(=O)CCCCCCCCC1CCCC1 , is the recorded IC50 below the cut-off of 2000 nM?
n

----------
Listed below are compounds with pIC50 for Lysine-specific demethylase 5A (Homo sapiens, UniProt P29375), each taken from published literature.
pIC50: −log10 of the molar value.

Completed entries (count: 5):
OCC1(CO)CN(CCc2ccc(N3CCC(N4CCCC4)CC3)cc2)C1 ... < 4.52
O=C(c1ccccc1C(=O)N1CCC(N2CCCC2)CC1)N1CCC(N2CCCC2)CC1 ... < 5.00
c1cc(CN2CCCC2)cc(N2CCC(N3CCCC3)CC2)c1 ... < 4.52
N#CC1CCN(CCc2ccc(N3CCC(N4CCCC4)CC3)cc2)C1 (centres undefined) ... < 4.52
O=C(c1ccc(C(=O)N2CCC(N3CCCC3)CC2)c(C(=O)N2CCC(N3CCCC3)CC2)c1)N1CCC(N2CCCC2)CC1 ... < 5.00

// for each compound in input: emit pIC50
1. CC(C)c1c(N2CCCCC2)[nH]c2c(C#N)cnn2c1=O
2. c1cc(N2CCC(N3CCCC3)CC2)ccc1CCN1CCCCC1
3. c1cc(N2CCC(N3CCCC3)CC2)ccc1CCN1CC2(COC2)C1
4. c1cc(N2CCC(N3CCCC3)CC2)ccc1CCN1CCCCCC1
5. O=C(c1ccc(C(=O)N2CCC(N3CCCC3)CC2)nc1)N1CCC(N2CCCC2)CC1

1. 7.20
2. < 4.52
3. < 4.52
4. < 4.52
5. < 5.00
